// reported protein stability index per item
B1: STEAP1 (parent)
chain: LWKMKPRRNLEEDDYLHKDTGETS

Variants of: B1
TEST SUMMARY: protein stability index of a GFP-peptide fusion (GPS, HEK-293T) (PSI 1-6); higher = more stable;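 also: lentivirally expressed fusions sorted by FACS into six bins by GFP to DsRed ratio, PSI derived from sequencing read proportions per bin multiplied by bin number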
TEST CONTEXT: c terminus: a fixed tail appended
Kindly provide the number alone.

MUTANT ID | protein stability index
M4K | 4.19
R8I | 4.22
R7F | 3.55
L10D | 4.9
E22T | 3.7

Fill blank: measured protein stability index of the variant R8N is ____.
4.53

Okay, and K3G ?
4.22

Okay, and D13T ?
4.19

Okay, and N9W ?
3.08

Provenance of the data: the supplement of paper PMC10567573
